Test: chemical genetic growth profiling, strain panel (AID 1159580);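 also: tested at 20 µM; growth read once vehicle control cultures reached saturation at 30 °C; 1 = growth at the plate median or of vehicle wells; lower values mean less growth of the strain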
Conditions: S. cerevisiae deletion strains, growth OD, locus YBR171W, strain sec66, stronger effect = lower value
The campaign covered roughly 5,500 compounds. About 2,000 (36%) were called active. Another 18% or so got no clear call; they are omitted. This is one part of the list.
Measurement type: normalized growth
Give bare numbers.

1. C#C[C@]1(O)CCC2C3CCC4=CC(=O)CC[C@@H]4C3CC[C@@]21CC (some centres not stated) = 0.992
2. Nc1ccc(S(=O)(=O)c2ccc(N)cc2)cc1 = 1
3. COc1cc(C(=O)NCCCCCC(=O)O)cc(OC)c1OC = 0.97
4. Cc1ccc(-c2cc(C(F)(F)F)nn2-c2ccc(S(N)(=O)=O)cc2)cc1 = 1.05
5. NC12CC3CC(CC(C3)C1)C2 = 1.01
6. CO[C@@]12[C@@H]3NC3CN1C1=C(C(=O)C(N)=C(C)C1=O)[C@@H]2COC(N)=O (some centres not stated) = 0.958
7. COc1cc(N)c(Cl)cc1C(=O)NC1CCN(Cc2ccccc2)CC1 = 0.999
8. Cc1cc(C(C)(C)C)c(O)c(C(C)(C)C)c1 = 0.979

// batch mode: one normalized growth value per listed entry
1. O=C1C(O)=C(O)C(=O)C(O)=C1O
2. CNC(=O)O/N=C\C(C)(C)SC
3. C/C=C1\[C@H]2C=C(C)C[C@]1(N)c1ccc(=O)[nH]c1C2

[1.02, 1.01, 1.03]

May I ask what normalized growth has been recorded for "Cc1ccc(N=CN(C)C=Nc2ccc(C)cc2C)c(C)c1" ?
0.971

Data provenance is PubChem BioAssay AID1159580.
